biological target: BRD4-2 (Homo sapiens, UniProt O60885); construct: made in house; host or cells: Escherichia coli; assay: HTRF (TR-FRET) assay, BRD4-2 binding to acetylated histone H4 peptide; settings: 120 nM BRD4-2, 200 nM H4 peptide, 60 minutes at 25° C.; geometric mean of a minimum of four determinations; read-out: HTRF BRD4-2 (IC50)
test_readout: pIC50
Give bare numbers, as −log10 of the molar value.

Cc1noc(C)c1-c1cc(C(O)(c2ccccc2)c2ccccc2)c2nc(C3CC3)[nH]c2c1 = 7.12
Cc1noc(C)c1-c1cc(C(O)C2CCCC2)c2nc(C3CC3)[nH]c2c1 (stereo not drawn) = 7.09
Cc1n[nH]c(C)c1-c1cc(-c2c(C)noc2C)cc2nc(C3CC3)n(C)c12 = 7.16
Cc1n[nH]c(C)c1-c1cc(-c2c(C)noc2C)cc2nc(N)[nH]c12 = 7.01
Cc1ccc2ncccc2c1-c1cc(-c2c(C)noc2C)cc2nc(C3CC3)n(C)c12 = 6.95

Please find the next compound below.
Incoming: // map Cc1noc(C)c1-c1cc(S(=O)(=O)NC2CCCC2)c2nc(Cc3ccccc3)[nH]c2c1 to recorded pIC50 (system: BRD4-2 (Homo sapiens, UniProt O60885))
Outgoing: 6.95
